The reported numbers originate from PubChem BioAssay.

# z-score listing for each entry below
protocol_summary: S. cerevisiae RM11-1a growth modifiers, primary screen, strain RM11-1a, OD600, basal, 24 h (AID 1177);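 also: cultures grown under basal conditions with no added stressor; test concentration not given here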
setup_conditions: OD600, 24 h, higher = more signal, called active from +8 up or from −8 down
The source made the active and inactive calls.

COC(=O)[C@@]1(Cc2ccc(OC)cc2)[C@H]2c3cc(C(=O)N4CCCC4)n(CCc4ccc(OC)c(Br)c4)c3C[C@H]2CN1C(=O)c1ccccc1	-0.101 (inactive)

Asked: Consider the molecule O=C1OCCC=C[C@H]2OC34C=CCN(CCN5CCOCC5)C(=O)[C@H]3N(CCCO)C(=O)[C@@H]4C12 (stereo partly drawn) and give its measured z-score.
Given back: 0.23 (inactive)

Asked: Subsequent entry: `CCOC(=O)C[C@H]1[C@H](OC(=O)Cc2ccc3c(c2)OCO3)[C@@H](NC(=O)c2ccccc2)c2cc(OCCCO)ccc2N1C(=O)Cc1ccc(OC)cc1`
Given back: -1.86 (inactive)
